Entries and their S. aureus MIC values follow.
Tested on: Staphylococcus aureus strain Newman
Conditions: Table 1; strain Newman; 20 h 37°C; maximal concentration 1 mg/mL
Answer format: numeric, µM implied, no suffix.

Solved entries (count: 3):
H-FFWLSRRTK-NH2 [Pep4] = 200
H-FFSYWLSRRTK-NH2 [Pep2] = 170
H-FFSWLSRRTK-NH2 [Pep3] = 190

Now look at this entry.
Recorded S. aureus MIC of H-MLIFVHIIAPVISGCAIAFFSYWLSRRNTK-NH2 [PepA1, reference compound] , please.
8

====

Tested on: human erythrocytes
Experiment: Lytic activity against human erythrocytes
Type: cell-based
Conditions: Table 1; 2 h 37°C; maximal concentration 1 mg/mL
Outcome Measure: Human cells H50 (peptide concentration at which half of the human erythrocytes are lysed)

Recorded Human cells H50 (peptide concentration at which half of the human erythrocytes are lysed) of H-MLIFVHIIAPVISGCAIAFFSYWLSRRNTK-NH2 [PepA1, reference compound] , please.
70 µM

====

Tested on: human erythrocytes
Experiment: Lytic activity against human erythrocytes
Assay type: cell-based
Details: Table 2; maximal concentration 500 μM
Starred links: 1 amine or outer side, 2 acyl side, 3 side chain; linkers in the order of their positions; H or OH if unused. Non-standard residues stand in square brackets, D forms with d. Residues, ends and D or L forms follow the SMILES beside them. azaβ3(1Nal) = O=C(CN(Cc1cccc2ccccc12)N[*:1])[*:2]; X1 = O=C(CN(CC(O)CO)N[*:1])[*:2]
Outcome Measure: Human cells H50

Recorded Human cells H50 of N=C(N)NCCC[C@@H]1NC(=O)[C@H](Cc2c[nH]c3ccccc23)NC(=O)[C@H](Cc2ccccc2)NC(=O)CN(Cc2cccc3ccccc23)NC(=O)[C@H](CCCCN)NC(=O)CN(CC(O)CO)NC(=O)[C@H](CCCNC(=N)N)NC1=O (stereo partly drawn) [Pep12, (Ψ1Nal-FWRR-ΨHyt-K)] (cyclo([azaβ3(1Nal)]FWRR[X1]K)) , please.
220 µM

====

Entries and their E. coli MIC values follow.
Tested on: Escherichia coli strain K12 XL-Blue
Conditions: Table 1; strain K12 XL-Blue; 20 h 37°C; maximal concentration 1 mg/mL
Starred links: 1 amine or outer side, 2 acyl side, 3 side chain; linkers in the order of their positions; H or OH if unused. Non-standard residues stand in square brackets, D forms with d. Residues, ends and D or L forms follow the SMILES beside them. X1 = O=C(CN(CC(O)CO)N[*:1])[*:2]
Answer format: numeric, µM implied, no suffix.

Solved entries (count: 3):
CC(C)C[C@H](NC(=O)[C@H](Cc1c[nH]c2ccccc12)NC(=O)[C@H](Cc1ccccc1)NC(=O)[C@@H](N)Cc1ccccc1)C(=O)N[C@@H](CCCNC(=N)N)C(=O)N[C@@H](CCCNC(=N)N)C(=O)NN(CC(=O)N[C@@H](CCCCN)C(N)=O)CC(O)CO (stereo partly shown) [Pep9, H-FFWLRRΨHytK-NH2] (H-FFWLRR[X1]K-NH2) = 100
N=C(N)NCCC[C@@H]1NC(=O)[C@H](Cc2c[nH]c3ccccc23)NC(=O)[C@H](Cc2ccccc2)NC(=O)[C@H](Cc2ccccc2)NC(=O)[C@H](CCCCN)NC(=O)CN(CC(O)CO)NC(=O)[C@H](CCCNC(=N)N)NC1=O (stereo partly shown) [Pep11, (FFWRRΨHytK)] (cyclo(FFWRR[X1]K)) = 3
C[C@@H](O)[C@@H]1NC(=O)[C@H](CCCNC(=N)N)NC(=O)[C@H](CCCNC(=N)N)NC(=O)[C@H](CO)NC(=O)[C@H](Cc2c[nH]c3ccccc23)NC(=O)[C@H](Cc2ccccc2)NC(=O)[C@H](Cc2ccccc2)NC(=O)[C@H](CCCCN)NC1=O [Pep7] (cyclo(FFWSRRTK)) = 13

Now look at this entry.
Recorded E. coli MIC of CC(C)C[C@@H]1NC(=O)[C@H](Cc2c[nH]c3ccccc23)NC(=O)[C@H](Cc2ccccc2)NC(=O)[C@H](Cc2ccccc2)NC(=O)[C@H](CCCCN)NC(=O)CN(CC(O)CO)NC(=O)[C@H](CCCNC(=N)N)NC(=O)[C@H](CCCNC(=N)N)NC1=O (stereo partly shown) [Pep10, (FFWLRRΨHytK)] (cyclo(FFWLRR[X1]K)) , please.
13

====

System: human erythrocytes
Test: Lytic activity against human erythrocytes
Assay type: cell-based
Details: Table 1; 2 h 37°C; maximal concentration 1 mg/mL
Starred links: 1 amine or outer side, 2 acyl side, 3 side chain; linkers in the order of their positions; H or OH if unused. Non-standard residues stand in square brackets, D forms with d. Residues, ends and D or L forms follow the SMILES beside them. X1 = O=C(CN(CC(O)CO)N[*:1])[*:2]
Outcome Measure: Human cells H50 (peptide concentration at which half of the human erythrocytes are lysed) (µM)
Answer format: numeric, µM implied, no suffix.

CC(C)C[C@@H]1NC(=O)[C@H](Cc2c[nH]c3ccccc23)NC(=O)[C@H](Cc2ccccc2)NC(=O)[C@H](Cc2ccccc2)NC(=O)[C@H](CCCCN)NC(=O)CN(CC(O)CO)NC(=O)[C@H](CCCNC(=N)N)NC(=O)[C@H](CCCNC(=N)N)NC1=O (stereo partly drawn) [Pep10, (FFWLRRΨHytK)] (cyclo(FFWLRR[X1]K)) = 150

Now look at this entry.
Recorded Human cells H50 (peptide concentration at which half of the human erythrocytes are lysed) of C[C@@H](O)[C@@H]1NC(=O)[C@H](CCCNC(=N)N)NC(=O)[C@H](CCCNC(=N)N)NC(=O)[C@H](CO)NC(=O)[C@H](Cc2c[nH]c3ccccc23)NC(=O)[C@H](Cc2ccccc2)NC(=O)[C@H](Cc2ccccc2)NC(=O)[C@H](CCCCN)NC1=O [Pep7] (cyclo(FFWSRRTK)) , please.
14

====

Test system: human erythrocytes
Assay: Lytic activity against human erythrocytes
Assay type: cell-based
Settings: Table 1; 2 h 37°C; maximal concentration 1 mg/mL
Starred links: 1 amine or outer side, 2 acyl side, 3 side chain; linkers in the order of their positions; H or OH if unused. Non-standard residues stand in square brackets, D forms with d. Residues, ends and D or L forms follow the SMILES beside them. X1 = O=C(CN(CC(O)CO)N[*:1])[*:2]
Outcome Measure: Human cells H50 (peptide concentration at which half of the human erythrocytes are lysed) (µM)
Answer format: numeric, µM implied, no suffix.

Solved entries (count: 2):
CC(C)C[C@@H]1NC(=O)[C@H](Cc2c[nH]c3ccccc23)NC(=O)[C@H](Cc2ccccc2)NC(=O)[C@H](Cc2ccccc2)NC(=O)[C@H](CCCCN)NC(=O)[C@H]([C@@H](C)O)NC(=O)[C@H](CCCNC(=N)N)NC(=O)[C@H](CCCNC(=N)N)NC(=O)[C@H](CO)NC1=O [Pep6] (cyclo(FFWLSRRTK)) = 5
C[C@@H](O)[C@@H]1NC(=O)[C@H](CCCNC(=N)N)NC(=O)[C@H](CCCNC(=N)N)NC(=O)[C@H](Cc2c[nH]c3ccccc23)NC(=O)[C@H](Cc2ccccc2)NC(=O)[C@H](Cc2ccccc2)NC(=O)[C@H](CCCCN)NC1=O [Pep8, (FFWRRTK)] (cyclo(FFWRRTK)) = 160

Now look at this entry.
Recorded Human cells H50 (peptide concentration at which half of the human erythrocytes are lysed) of N=C(N)NCCC[C@@H]1NC(=O)[C@H](Cc2c[nH]c3ccccc23)NC(=O)[C@H](Cc2ccccc2)NC(=O)[C@H](Cc2ccccc2)NC(=O)[C@H](CCCCN)NC(=O)CN(CC(O)CO)NC(=O)[C@H](CCCNC(=N)N)NC1=O (stereo partly drawn) [Pep11, (FFWRRΨHytK)] (cyclo(FFWRR[X1]K)) , please.
840
